Provide the recorded TGI for the entries that follow.
- Test system: UACC-62 melanoma
- Measurement Notes: NCI tumour cell line growth inhibition, 48 h

These recorded examples may help you get a feel for the data.
// TGI lookup, molecule = CC(C)=CC(=O)OC1C2C(C)=CC(O)C(O)C2(C)C2C3(O)OCC24C(CC(=O)OC14)C(C)C3O (stereo unspecified) , result: 0.263 µM

// TGI lookup, molecule = "COc1cc(C(=O)O)c(-c2cc3c(cc2C=O)OCO3)c(OC)c1OC" , result: > 10 µM

// TGI lookup, molecule = CC(C)OC(=O)C1Cc2c([nH]c3ccccc23)C(c2ccccc2)N1 (stereo unspecified) , result: > 100 µM

// TGI lookup, molecule = CC(C)=CCC/C(C)=C/CCC1(C)C=Cc2c(c3ccccc3oc2=O)O1 (stereo unspecified) , result: 24 µM

// TGI lookup, molecule = "C[C@H](NC(=O)CNC(=O)CCCCCC(=O)NCC(=O)N[C@@H](C)C(=O)OCc1ccccc1)C(=O)OCc1ccccc1" , result: > 100 µM

Batch of 5 molecules: report TGI for each.
1. O=c1n(-c2ccccc2)c(=O)n2c(-c3ccccc3)c(-c3ccccc3)n12
2. CC(N)CC(=O)O (stereo unspecified)
3. N#CCNC(=O)c1ccc(-c2ccnc(Nc3ccc(N4CCOCC4)cc3)n2)cc1
4. S=C(N/N=C/c1ccccn1)N1CCCCCC1
5. COc1ccc2nc3cc(Cl)ccc3c(N3CCN(c4ccnc(N5CCN(C)CC5)n4)CC3)c2c1

> 100 µM
> 5000 µM
> 57.8 µM
0.364 µM
3.69 µM

Batch of 2 molecules: report TGI for each.
1. CCOC(=O)/C=C\C(C#N)(C#N)N=Cc1ccsc1
2. Oc1cccnc1/C=N/OCc1ccccc1

1. 32 µM
2. > 100 µM

Batch of 4 molecules: report TGI for each.
1. CC(=O)OCC(CC[CH2][Sn]([Cl])([Cl])[c]1ccccc1)OC(C)=O (stereo unspecified)
2. c1cncc(CSc2ncnc3nc[nH]c23)c1
3. c1ccc(COC2C3COC(O3)C(OCc3ccccc3)C2OCc2ccccc2)cc1 (stereo unspecified)
4. O=C(Cc1ccccc1)C(c1ccccc1)S(=O)(=O)c1ccccc1 (stereo unspecified)

25.6 µM
> 100 µM
> 100 µM
> 100 µM

====

- Test system: NCI-H23 lung
- Measurement Notes: NCI tumour cell line growth inhibition, 48 h
Value Kind: TGI

// TGI lookup, compound = CC(C)=CC(=O)OC1C2C(C)=CC(O)C(O)C2(C)C2C3(O)OCC24C(CC(=O)OC14)C(C)C3O (stereo not drawn) , result: 0.387 µM

Batch of 2 compounds: report TGI for each.
1. O=C1/C(=C/c2cccs2)NC(=S)N1CN1CCCCC1
2. Nc1ccc(-c2nc3ccc(F)cc3s2)cc1I

> 100 µM
> 100 µM

====

Provide the recorded TGI for the entries that follow.
- System: SK-MEL-2 melanoma
- Measurement Notes: NCI tumour cell line growth inhibition, 48 h

// TGI lookup, molecule = "CSC1=Nc2c(c(C)c(-c3ccccc3)n2COC(CO)CO)C2=NC(=O)CN12" , result: > 100 µM

// TGI lookup, molecule = "O=C(Nc1nc2ncn(CCO)c2c(=O)[nH]1)c1ccccc1" , result: > 100 µM

Batch of 7 molecules: report TGI for each.
1. Cc1cc2c(c(=O)o1)C1=S(SC(c3ccccc3)=C1)S2 (stereo unspecified)
2. Nc1ccc(-c2nc3ccc(F)cc3s2)cc1I
3. CCOP(=O)(OCC)C(Cc1ccc(Cl)cc1)NS(=O)(=O)c1ccc(C)cc1 (stereo unspecified)
4. O=C1/C(=C/c2ccccc2O)N=C(c2ccccc2)N1c1cc(C(F)(F)F)ccc1Cl
5. Cc1ccc(/C=C2\Cc3cc(C)c(C)cc3C2=O)c(C(=O)O)c1
6. Cc1ccc(S(=O)(=O)NC(=O)Nc2cc(Cl)c(S(N)(=O)=O)cc2S(N)(=O)=O)cc1
7. C[C@H]1CN(C2COC2)CCN1c1ccc(Nc2cc(-c3ccnc(N4CCn5c(cc6c5CC(C)(C)C6)C4=O)c3CO)cn(C)c2=O)nc1

> 100 µM
> 100 µM
> 100 µM
> 100 µM
> 100 µM
> 100 µM
> 100 µM

Batch of 2 molecules: report TGI for each.
1. Cc1cn(C2CC(O)C(Cn3nncc3Cn3ncc(=O)[nH]c3=O)O2)c(=O)[nH]c1=O (stereo unspecified)
2. Cn1c(C(=O)c2cccc3ccccc23)nc2ccccc21

1. > 100 µM
2. > 100 µM

====

Provide the recorded TGI for the entries that follow.
- Tested on: A498 renal
- Measurement Notes: NCI tumour cell line growth inhibition, 48 h

These recorded examples may help you get a feel for the data.
// TGI lookup, compound = "Cc1cccc(CNc2ncnc3[nH]ncc23)c1" , result: > 100 µM

// TGI lookup, compound = "c1ccc(C2CCCCC2)c(OCCCCCN2CCNCC2)c1" , result: 20.7 µM

// TGI lookup, compound = "CCN(Cc1ccc(F)cc1)c1ccc(CO)c(C(F)(F)F)c1" , result: 0.287 µM

// TGI lookup, compound = "COC1=C(OC)C(=O)C(CCCCCCCCCCO)=C(C)C1=O" , result: 26.6 µM

// TGI lookup, compound = "NCc1ccc(-c2nc(-c3ccc(Cl)c(O)c3)c(-c3ccncc3)[nH]2)cc1" , result: > 25 µM

// TGI lookup, compound = "COc1ccc(/C=N\Nc2nc(SCC(C)C)nc(-c3ccc(OC)cc3)c2C#N)cc1" , result: 7.14 µM

// TGI lookup, compound = C=C(C)CCC1CC=[N+]([O-])OC1C(C)(C)C (centres undefined) , result: > 100 µM

// TGI lookup, compound = "Nc1nc(-c2ccc(Cl)cc2)nc2c1sc(=S)n2-c1ccccc1" , result: 5.19 µM

// TGI lookup, compound = "CC(C)CCC[C@@H](C)[C@H]1CC[C@H]2C3=C[C@H](OS(=O)(=O)O)[C@@]4(O)C[C@@H](O)CC[C@]4(C)[C@@]3(O)CC[C@]12C" , result: > 100 µM

// TGI lookup, compound = "O=c1n(-c2ccccc2)c(=O)n2c(-c3ccccc3)c(-c3ccccc3)n12" , result: > 100 µM

Batch of 2 compounds: report TGI for each.
1. O=C1/C(=C/c2ccccc2O)N=C(c2ccccc2)N1c1cc(C(F)(F)F)ccc1Cl
2. NC(CCCCNCc1ccccc1O)C(=O)O (centres undefined)

["> 100 µM", "> 100 µM"]

Batch of 2 compounds: report TGI for each.
1. CC(=O)NCCCCN(CCCNC(C)=O)C(=O)OCc1ccccc1
2. O=C(Nc1ccc2[nH]c(C(=O)N3CC(CCl)c4ccc([N+](=O)[O-])cc43)cc2c1)c1cc2ccccc2o1 (centres undefined)

["> 100 µM", "> 1100 µM"]

====

Provide the recorded TGI for the entries that follow.
- Test system: UACC-257 melanoma
- Measurement Notes: NCI tumour cell line growth inhibition, 48 h

These recorded examples may help you get a feel for the data.
// TGI lookup, molecule = C=CCN(CC=C)C(=O)[C@H](CC)[C@@H]1CC[C@@H](C)[C@@H]([C@H](C)[C@@H](O)[C@@H](C)C(=O)[C@H](CC)C2O[C@]3(C=C[C@@H](O)[C@]4(CC[C@@](C)([C@H]5CC[C@](O)(CC)[C@H](C)O5)O4)O3)[C@H](C)C[C@@H]2C)O1 (some centres undefined) , result: 8.25 µM

// TGI lookup, molecule = "CNC(=O)N1N[C@H](c2ccccc2)[C@@H]1c1ccccc1" , result: > 100 µM

// TGI lookup, molecule = C=CC[N+]1(CC)CCN=C1CCCCCCCCCCCCCCCCC (centres undefined) , result: 2.16 µM

---
// TGI lookup, molecule = CC(N)CC(=O)O (centres undefined) , result: > 5000 µM

====

Provide the recorded TGI for the entries that follow.
- Test system: SNB-19 CNS
- Measurement Notes: NCI tumour cell line growth inhibition, 48 h

// TGI lookup, compound = COc1cc(C(=O)C2CC3(CCC2(O)c2cc(OC)c(OC)c(OC)c2)CC(=O)Nc2ccccc2C3=O)cc(OC)c1OC (stereo not given) , result: > 100 µM

// TGI lookup, compound = "Cc1ccc(S(=O)(=O)N2CCN(S(=O)(=O)c3ccc(C)cc3)CCN(S(=O)(=O)c3ccc(C)cc3)Cc3cc(Br)c(Br)cc3CN(S(=O)(=O)c3ccc(C)cc3)CC2)cc1" , result: > 100 µM

Batch of 5 compounds: report TGI for each.
1. c1n[nH]cc1C12C3C4C5C3C1C5C42 (stereo not given)
2. CCOP(=O)(OCC)C(Cc1ccc(Cl)cc1)NS(=O)(=O)c1ccc(C)cc1 (stereo not given)
3. CN1C(=NCCO)NS(=O)(=O)c2ccccc21
4. CCOC(=O)/C=C\C(C#N)(C#N)N=Cc1ccsc1
5. CC1SC(c2ccc(Cl)cc2)N(CCc2cccs2)C1=O (stereo not given)

> 100 µM
> 100 µM
> 100 µM
55.2 µM
3.31 µM

Batch of 4 compounds: report TGI for each.
1. CC(=O)[CH-]C(C)=O.CC(=O)[CH-]C(C)=O.CC(=O)[CH-]C(C)=O.[Ga+3]
2. CCCCN(C)C(=O)C1=C(C)NC(C)=C(C(=O)N(C)CCCC)C1
3. CNC(=O)N1N[C@H](c2ccccc2)[C@@H]1c1ccccc1
4. CC(C)=CC(=O)OC1C2C(C)=CC(O)C(O)C2(C)C2C3(O)OCC24C(CC(=O)OC14)C(C)C3O (stereo not given)

1. > 100 µM
2. > 100 µM
3. > 100 µM
4. 0.519 µM

Measured values drawn from PubChem BioAssay (NCI) for this set.
